Assay: soluble on expression in E. coli; label from the status in PepcDB or PDB records

- Residue Sequence: "MKSVKEIRKSQVNSMISDQYEIFHVKDMVSPEKTIYHYHDFYEVHCTLKGVATFFLDGHQFDVEAGTVLLIHYHDLHRIIKQSTDDFERMYIFLTPDFLQQRSSKRTNLSACFQHFGQRRSKVIKVDVAKLANYLTPLDHSPLPEEYGADVRYEQQLLDFLIYLNQLVLKEENESQPKQMIENER"
  soluble on expression in E. coli: "not soluble"
- Residue Sequence: "MNSCWAKGKLMCEGRPASGVKVKLMESDNSFLPGFLDRDDKMASGKADSNGEFNLSGSTKEITGIEPYLAVFHDCKDGITPCQRVLRINIPKSYANWGSSAEKTFNAGNLELAGKFPGETRSCFN"
  soluble on expression in E. coli: "not soluble"

* * *

Test: soluble on expression in E. coli; label from the status in PepcDB or PDB records

- Residue Sequence: "MSLELPAEVQEMPIYREWISGILAGKIASPFWEMAQPQKNQHCLDIGCGVSFLIYPWRDWQAFFYGQDVSNVARDTLNSRGSQLNSKLFKGVELGAAHQLKYTLSYFDLAIATGFSCYFPLEYWTSVLQAVKRVLKPDGHFVFDILNAAHPQAEDWAVLETYLGAEVFLEPVTEWEKIINAAGAKVVGRQPGEFFDLYKLRLEHHHHHH"
  soluble on expression in E. coli: "soluble"
- Residue Sequence: "MGSDKIHHHHHHMDSLGEQPSNRAPVITISSGRYLAQIATYGGGIKSLTYDGRPLVETYPDDAFPPLNAGVVLAPWPNRTDAGAYDFQGQSYQLPITEPDRNNAIHGFVANAVWNIDLIRPARVILSTTIEPQQGWPWAIELAADYLLTDSGLRAQFTATTPHEAVPFGFGWHTYLSAQGAEVDKTTLRVGVDKQWMLDDRNLPTGELVQPTNDVSGGLPMAGKLLDDCFLAERTPVTTVLESQGVGVSMHCSEQFPWFQIFTPDPAWEMPYPGRGRSVAVEPMTTSPNGLNLGIDTIGAASPWHGTITISAYNKHS"
  soluble on expression in E. coli: "not soluble"
- Residue Sequence: "MNDTPDDTFVSGYLLYLLAASSEEASAQFHDHIRAQGLRVPEWRVLACLVDNDAMMITRLAKLSLMEQSRMTRIVDQMDARGLVTRVADAKDKRRVRVRLTDDGRALAESLVASARAHETRLLSALADTDAARIKGVLRTLLDVLDRPRESR"
  soluble on expression in E. coli: "soluble"
- Residue Sequence: "MSLKLIGLLMLSYPLQAAPTDLSRYLETQLKEDAREALNSYLQQQGWSASEVDYQVWLSPAVTHLPPCQQAIRLQAGGQYRQPWGRRPYLAECTEPAWQLRARVEVTLMLPVWVTAQEIQKGQTIRTGDLVEKSLDISRLQRGFVPSSESLVGSKSNRNLRMGQLIGELDLQKAWAIREGEGVLIRAGLDGFSATTRGKALANGAIGDGIKVRNISSGKEIQAWVIEKGEVETRFEGHHHHHH"
  soluble on expression in E. coli: "not soluble"

* * *

Assay: soluble on expression in E. coli; label from the status in PepcDB or PDB records

- Residue Sequence: "MAHTGRMFKIEAAEIVVARLPLKFRFETSFGVQTHKVVPLLILHGEGVQGVAEGTMEARPMYREETIAGALDLLRGTFLPAILGQTFANPEAVSDALGSYRGNRMARAMVEMAAWDLWARTLGVPLCTLLGGHKEQVEVGVSLGIQADEQATVDLVRRHVEQGYRRIKLKIKPGWDVQPVRATREAFPDIRLTVDANSAYTLADAGRLRQLDEYDLTYIEQPLAWDDLVDHAELARRIRTPLCLDESVASASDARKALALGAGGVINLKVARVGGHAESRRVHDVAQSFGAPVWCGGMLESGIGRAHNIHLSCLSNFRLPGDTSSASRYWERDLIQEPLEAVDGLMPVPQGPGTGVTLDREFLATVTEAQEEHRA"
  soluble on expression in E. coli: "soluble"
- Residue Sequence: "MIHVREFQASDSDVVLHLLDLKDIINSSSFSEKVFQLSESGDFLGLVAEANQSGKHQVVGCAFLRLLETISRGLHCQIEELAIDKAWLHQGVGKSLMETATSWAKERGVGDIYVDSPYASIAVKEGIDSVFVRDEVLEVAQQYEAEKEELQESLKKQYNTTISKLEKEYEAKKQQQDETIHNLQTQLEDATQYLEEQQAEENELLNIDPSSPRNHTGPYPRGRGFWGTLCFPIRKTCGPGSCLRLPSGPASVRGSTDRSN"
  soluble on expression in E. coli: "soluble"

* * *

Assay: soluble on expression in E. coli; label from the status in PepcDB or PDB records

- Residue Sequence: "YRENDPRLQLAFKLFLDGCTDKEVEQQTGINRRTFRRYRMKYGITNSLRHKND"
  soluble on expression in E. coli: "not soluble"
- Residue Sequence: "MGSDKIHHHHHHMMRENLAYLEPPLRIAILSQGPQLYSTKRLVEAAQARGHDVHIINPLKCYMNINMRQPSIHIAGKELPQFDAVIPRIGASITFYGSAVLRQFEMMGVYTINDSVGISRSRDKLRSMQLLSRKGIGLPITGFANKPSDIPDLIDMVGGAPLVVKLLEGTQGIGVVLAETRKAAESVLEAFMGLKANIMVQEYIKEANGADIRCFVLGDKVIAAMKRQAKAGEFRSNLHRGGTATLVKLSPEERTTAIRAAKTMGLSLAGVDLLRSNHGPVVMEVNSSPGLEGIEAATQKDVANAIIEFIEKNANKAKS"
  soluble on expression in E. coli: "not soluble"

* * *

Experiment: soluble on expression in E. coli; label from the status in PepcDB or PDB records
Metric Name: soluble on expression in E. coli

- Residue Sequence: "MIIYKDIFSNDELLSDAYDAKLVDDVIYEADCAMVNVGGDNIDIGANPSAEGGDDDVEEGAEMVNNVVHSFRLQQTAFDKKSFLTYIKGYMKAVKAKLQETNPEEVPKFEKGAQTYVKKVIGSFKDWEFFTGESMDPDAMVVMLNYREDGTTPFVAIWKHGIVEEKI"
  Experimental Result: "soluble"
- Residue Sequence: "MYGTEQVISGTIIAGPELDPIEGYICVKNGIITEIGEEHTYSANIIAPCFVNAHTHLGDSVCKDPPLGKTSGFRVQKDLDSLVKPPDGLKHRILRDTSYKTLIQYIRKSLLDMIETGTCAFADFREGGVVGLAALNKALEGLNLHSLIFGRPTEPQLPLEVVLAEVRRVLSHSDGLGMSGANDLDMELLQEMTTCTRDRKKLFAIHAGEKNRSDIEKALSLEPDLLIHLTHATKKDLEDVAQTGAPVVVCPRSNFVTGSGMAPIAEMLEAEIRVAAGTDNVMLNSVNMFAEMEFMSKVFSIEDRQVFKICTLNGSFVMGPDSTGSIEKGNKANLMILNGSSNNLAGIKDPISGITKRARPDDILAVLHS"
  Experimental Result: "soluble"
- Residue Sequence: "GPNANPIPEHFFAPYIDMSLSVHKPLVEYAKLTGTKYFTLAFILYSSVYNGPAWAGSIPLEKFVDEVRELREIGGEVIIAFGGAVGPYLCQQASTPEQLAEWYIKVIDTYNATYLDFDIAAGIDADKLADALLIVQRERPWVKFSFTLPSDPGIGLAGGYGIIETMAKKGVRVDRVNPMTMDYYWTPSNAENAIKVAENVFRQLKQIYPEKSDEEIWKMIGLTPMIGVNDDKSVFTLEDAQQLVDWAIQHKIGSLAFWSVDRDHPGPTGEVSPLHRGTNDPDWAFSHVFVKFMEAFGYTFSAQTSEASVPT"
  Experimental Result: "soluble"

* * *

Experiment: soluble on expression in E. coli; label from the status in PepcDB or PDB records

- Residue Sequence: "VQLQQSGPVLVKPGGSVKMSCKASEYTLTSYLFQWVKQKSGQGLEWIGYIYPYNGGTRYNEKFRGKATLTSDKSSNTAYLELSSLTSEDSAVYYCARSSMSDPGANWGPGTLVTVSSASTKGPSVFPLAPSSKSTSGGTAALGCLVKDYFPEPVTVSWNSGALTSGVHTFPAVLQSSGLYSLSSVVTVPSSSLGTQTYICNVNHKPSNTKVDKKVEP"
  soluble on expression in E. coli: "soluble"
- Residue Sequence: "MGSDKIHHHHHHMYPAKHYQTNEENITHYHEIIESNPLATLLFSHESEIDVSHIPCHFSLKTSNTNTQQLERSTLTAHVSNHHPLAKVLQRSSTVALQLVFHGEDAYISPRDVSKQHSHAQSVPTWNYAKVHVSGIAHEVKDSDDKYQYMAASTAYFEQRRSTNNIDKPWSIEEAPAIAIKKMLNAITIFSINITHLEGRFKLSQNKSKAVQKEIAEQLTTRGVEELGQLMLAL"
  soluble on expression in E. coli: "not soluble"
- Residue Sequence: "MVWSSETFGMTPEEQIEWMALDDQEKKKLERKRARNRQAATKCRQKKMDRIKELEEQVLHEKHRGQRLDAELLELNRALEHFRRTVEHHSGNGCPNNSIRV"
  soluble on expression in E. coli: "not soluble"
- Residue Sequence: "GPGPSRPSASWQNSVSERPPYSYMAMIQFAINSTERKRMTLKDIYTWIEDHFPYFKHIAKPGWKNSIRHNLSLHDMFVRETSANGKVSFWTIHPSANRYLTLDQVFKPLDPGSPQLPEHLESQQKRPNPELRRNMTIKTELP"
  soluble on expression in E. coli: "soluble"

The measurements presented in this section are drawn from the DeepSol protein solubility set.
